Molecular target: IL-23R (Homo sapiens, UniProt Q5VWK5);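 further: cryopreserved PBMCs stimulated at 37 °C in 5% CO2, then lysed, with phosphorylated STAT3 quantified in lysates using a phospho-STAT panel kit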
Sequence (Q5VWK5 24-629): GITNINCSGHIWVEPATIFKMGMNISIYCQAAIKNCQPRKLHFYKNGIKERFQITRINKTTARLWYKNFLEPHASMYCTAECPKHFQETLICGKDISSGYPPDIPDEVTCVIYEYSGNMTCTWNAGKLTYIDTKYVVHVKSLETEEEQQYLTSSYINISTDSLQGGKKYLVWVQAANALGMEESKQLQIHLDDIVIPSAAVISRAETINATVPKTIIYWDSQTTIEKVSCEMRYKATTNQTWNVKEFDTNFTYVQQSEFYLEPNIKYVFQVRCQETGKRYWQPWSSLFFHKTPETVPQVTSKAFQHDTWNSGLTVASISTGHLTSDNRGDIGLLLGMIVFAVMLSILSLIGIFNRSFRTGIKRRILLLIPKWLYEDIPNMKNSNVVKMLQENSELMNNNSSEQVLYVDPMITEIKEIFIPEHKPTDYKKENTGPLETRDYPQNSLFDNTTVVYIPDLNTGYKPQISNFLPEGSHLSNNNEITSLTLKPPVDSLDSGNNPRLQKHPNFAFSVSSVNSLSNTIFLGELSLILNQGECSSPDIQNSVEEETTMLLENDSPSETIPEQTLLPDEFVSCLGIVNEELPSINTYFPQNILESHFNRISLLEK
Test: cell-based
Conditions: PBMC pSTAT3 IC50 (nM), PBMCs from healthy donors, IL-23 5 ng/mL, 30 minutes, phosphorylated STAT3

MOLECULE: CC(=O)NCCCC[C@@H]1NC(=O)[C@H](Cc2c[nH]c3c(C)cccc23)NC(=O)[C@H]([C@@H](C)O)NC(=O)[C@H](CC(N)=O)NC(=O)[C@@H](NC(C)=O)C(C)(C)SSC(C)(C)[C@@H](C(=O)N[C@@H](Cc2ccc(OCCN)cc2)C(=O)N[C@@H](Cc2ccc3ccccc3c2)C(=O)N[C@@](C)(CCCCN)C(=O)N[C@@H](CCCCNC(C)=O)C(=O)N[C@@H](CC(N)=O)C(=O)N[C@@](C)(Cc2ccccc2)C(=O)N[C@H](Cc2cccc(N)c2)C(N)=O)NC1=O [Compound 115]
READOUT_UNITS: nM
IC50: 39
